target: human recombinant serotonin 5-HT2A receptor (Homo sapiens); construct: expressed in transfected cells; experiment: Binding affinity at serotonin 5-HT2A receptor; conditions: calculated inhibition constant, in parentheses; human recombinant; read-out: Ki by Receptor 5-HT2A
Sequence (P28223 whole entry): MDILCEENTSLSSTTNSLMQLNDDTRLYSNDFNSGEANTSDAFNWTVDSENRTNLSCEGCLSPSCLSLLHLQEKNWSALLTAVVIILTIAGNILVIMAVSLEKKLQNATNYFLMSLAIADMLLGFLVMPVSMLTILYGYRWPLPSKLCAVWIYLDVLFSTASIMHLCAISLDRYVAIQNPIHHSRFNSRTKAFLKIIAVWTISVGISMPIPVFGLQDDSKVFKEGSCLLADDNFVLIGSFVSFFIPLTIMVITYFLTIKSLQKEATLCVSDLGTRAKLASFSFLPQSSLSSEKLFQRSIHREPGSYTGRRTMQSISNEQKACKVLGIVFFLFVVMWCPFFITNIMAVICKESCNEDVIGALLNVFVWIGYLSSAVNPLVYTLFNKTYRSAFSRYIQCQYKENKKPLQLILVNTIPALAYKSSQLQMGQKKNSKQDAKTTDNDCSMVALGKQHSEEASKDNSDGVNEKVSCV
MEASURED_ATTRIBUTE: pKi
Notebook: values listed as pKi are -log10 of the concentration (mol/L).

1. Fc1ccc(-n2cc(C3=CCNCC3)c3cc(Cl)ccc32)cc1 [Nor]
7.96

From here, focus on the item given below.
# pKi (molecule: O=C1CNC(=O)N1CCN1CCC(c2cn(-c3ccc(F)cc3)c3ccc(Cl)cc23)CC1 [5-Oxo] ) is 7.96

====

biological target: human recombinant serotonin 5-HT2A receptor (Homo sapiens); construct: expressed in transfected cells; experiment: Binding affinity at serotonin 5-HT2A receptor
MEASURED_ATTRIBUTE: pKi
# pKi: negative log10 of molar concentration; output just the value

The molecule Fc1ccc(-n2cc(C3=CCNCC3)c3cc(Cl)ccc32)cc1 [Dehydro-Nor] showed pKi equal to 7.80

====

biological target: non-selective α1 receptor from rat cerebral cortex; test: Binding affinity at non-selective α1 receptor; settings: concentration required to inhibit 50% specific binding
# maps each entry to its pIC50
When answering, recall that pIC50 equals minus log10 of the concentration in mol/L, and write that number alone.

Past entries and their recorded results:
1) O=C1CNC(=O)N1CCN1CCC(c2cn(-c3ccc(F)cc3)c3ccc(Cl)cc23)CC1
7.92
2) O=C1NCCN1CCN1CCC(c2cn(-c3ccc(F)cc3)c3ccc(Cl)cc23)CC1 [Sertindole, reference compound]
8.21
3) Fc1ccc(-n2cc(C3=CCNCC3)c3cc(Cl)ccc32)cc1 [Nor]
7.31
4) Fc1ccc(-n2cc(C3=CCNCC3)c3cc(Cl)ccc32)cc1 [Dehydro-Nor]
6.99

The reported value for COc1cc2nc(N3CCN(C(=O)c4ccco4)CC3)nc(N)c2cc1OC [Prazosin, reference compound] in terms of pIC50 is 9.49

====

Consider the following molecules and their measured pKi readings.
biological target: human recombinant dopamine D4 receptor (Homo sapiens, UniProt P21917); assay: Binding affinity at dopamine D4 receptor; details: calculated inhibition constant, in parentheses
Sequence (P21917 whole entry): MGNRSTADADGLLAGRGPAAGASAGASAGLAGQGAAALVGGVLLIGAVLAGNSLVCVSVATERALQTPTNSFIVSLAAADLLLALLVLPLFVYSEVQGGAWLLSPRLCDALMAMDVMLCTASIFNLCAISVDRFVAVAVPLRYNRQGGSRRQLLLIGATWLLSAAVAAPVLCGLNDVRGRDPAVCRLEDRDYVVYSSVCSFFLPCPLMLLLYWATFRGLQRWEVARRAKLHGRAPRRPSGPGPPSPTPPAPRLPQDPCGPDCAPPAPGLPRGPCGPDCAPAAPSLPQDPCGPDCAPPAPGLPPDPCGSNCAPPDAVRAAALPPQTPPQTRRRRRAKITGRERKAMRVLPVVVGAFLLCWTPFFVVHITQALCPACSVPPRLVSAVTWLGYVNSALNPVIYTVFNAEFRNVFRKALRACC
Please express pKi as -log10 of the molar concentration.

1) Fc1ccc(-n2cc(C3=CCNCC3)c3cc(Cl)ccc32)cc1 [Nor]
6.48

pKi measured on Fc1ccc(-n2cc(C3=CCNCC3)c3cc(Cl)ccc32)cc1 [Dehydro-Nor] = 6.94

The measured pKi associated with `O=C1CNC(=O)N1CCN1CCC(c2cn(-c3ccc(F)cc3)c3ccc(Cl)cc23)CC1` reads 7.02
